System: P. aeruginosa PAO1
Set-up: unit not given beside the values
Test settings: antibiotic in combination with PMBN
Procedure: The potential of the dilipid polymyxins to serve as an adjuvant in combination with other antibiotics was evaluated against P. aeruginosa PAO1 strain (Tables 4 and 7-12). […] Fractional inhibitory concentration (FIC) index was calculated for each combination to measure potential synergism between the two agents. […] Initially, we assessed the adjuvant properties of PMBN against the panel of 21 antibiotics. […]

>  <Molecule>
C[C@@H]1O[C@@H]1P(=O)(O)O [Fosfomycin, reference compound]

>  <MICDrug in combo>
(2)

$$$$
>  <Molecule>
C=C[C@]1(C)C[C@@H](OC(=O)CO)[C@]2(C)[C@H](C)CC[C@]3(CCC(=O)[C@H]32)[C@@H](C)[C@@H]1O [Pleuromutilin, reference compound]

>  <MICDrug in combo>
(16)

$$$$
>  <Molecule>
[H]/N=C(/N)N[C@H]1[C@H](O)[C@@H](O)[C@H](O[C@@H]2O[C@@H](C)[C@](O)(C=O)[C@H]2O[C@@H]2O[C@@H](CO)[C@H](O)[C@@H](O)[C@@H]2NC)[C@@H](N/C(N)=N\[H])[C@@H]1O [Streptomycin, reference compound]

>  <MICDrug in combo>
(8)

$$$$
